system-tested: human PD-L1 on cell surface (human, UniProt Q9NZQ7 19-290)
Sequence (Q9NZQ7 19-290): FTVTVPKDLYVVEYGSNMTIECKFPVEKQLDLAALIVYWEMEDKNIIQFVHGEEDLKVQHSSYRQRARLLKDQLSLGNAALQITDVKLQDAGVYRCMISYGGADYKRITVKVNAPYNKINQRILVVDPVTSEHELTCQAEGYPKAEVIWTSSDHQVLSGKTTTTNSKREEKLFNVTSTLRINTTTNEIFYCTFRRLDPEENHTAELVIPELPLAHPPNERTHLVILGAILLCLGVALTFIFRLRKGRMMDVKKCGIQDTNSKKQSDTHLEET
experiment: cell-based or functional assay
binders and their reported EC50 (µg/ml) of IL-2 release, mixed lymphocyte reaction
Give the number; µg/mL is assumed, so skip it.

Past entries and their recorded results:
get_value(item= AH01946 (antibody, human IgG1, V domains shown, also called mPD-L1Ab-CBM clone AH01946) VH: QVQLQESGPGLVKPSQTLSLTCTVSGYSITSGYTWHWIRQHPGKGLEWIGYIHYSGSTKYNPSLKSRVTISRDTSKNQFSLKLSSMTAADTAVYYCARNSLFASWGQGTLVTVSS VL: DIVLTQSPDSLAVSLGERATINCRASESVDTYGDSFMHWFQQKPGQPPKLLIYRASNLESGVPDRFSGSGSGTDFTLTISSVQAEDVAVYYCQQSNEAPYTFGGGTKLEIK , readout=EC50 (µg/ml) of IL-2 release, mixed lymphocyte reaction) returns 0.0295

// recorded EC50 (µg/ml) of IL-2 release, mixed lymphocyte reaction for AH01950 (antibody, human IgG1, V domains shown, also called mPD-L1Ab-CBM clone AH01950) VH: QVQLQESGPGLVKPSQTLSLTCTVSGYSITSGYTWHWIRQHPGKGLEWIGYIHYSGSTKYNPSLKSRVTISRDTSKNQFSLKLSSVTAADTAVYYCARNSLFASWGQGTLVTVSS VL: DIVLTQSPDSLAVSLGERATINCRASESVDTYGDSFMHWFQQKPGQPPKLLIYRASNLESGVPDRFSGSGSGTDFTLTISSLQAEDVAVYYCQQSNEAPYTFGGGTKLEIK : 0.0311

Please look at the following binder next.
The measured EC50 (µg/ml) of IL-2 release, mixed lymphocyte reaction associated with AH01963 (antibody, human IgG1, V domains shown, also called mPD-L1Ab-CBM clone AH01963) VH: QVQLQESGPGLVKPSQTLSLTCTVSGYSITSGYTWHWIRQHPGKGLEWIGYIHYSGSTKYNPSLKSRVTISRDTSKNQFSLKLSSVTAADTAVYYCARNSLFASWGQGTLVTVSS VL: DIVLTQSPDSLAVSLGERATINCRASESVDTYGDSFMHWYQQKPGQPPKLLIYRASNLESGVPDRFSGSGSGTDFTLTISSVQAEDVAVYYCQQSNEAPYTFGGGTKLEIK reads 0.0406
